Each item that follows carries a reported self-aminoacylation.
Test system: biotinyl-Trp-oxazolone
assayExplanation: self-aminoacylation, catalytic enhancement (BWO) (fold over background); higher = more active; k-Seq, kA / k0A0; sequences stand for … in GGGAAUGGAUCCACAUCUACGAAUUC…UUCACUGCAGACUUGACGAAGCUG
This sample holds only a part of the variants without activity.
assayReadout: self-aminoacylation

[[record]]
sequencerecord = "CUACUUCACACACUCGGUCUG [Fam1A.1 aminoacylation ribozyme variant]"
quantitativeresult = 1.16

[[record]]
sequencerecord = "ACCUUUGCUAAUAGUCGCAAG [Fam3.1 aminoacylation ribozyme variant]"
quantitativeresult = 2.06

[[record]]
sequencerecord = "AAGUUCCCUAAUAGUCGCAAG [Fam3.1 aminoacylation ribozyme variant]"
quantitativeresult = 0.613

[[record]]
sequencerecord = "CCACACUUCAAGCAAUCGCUG [Fam1B.1 aminoacylation ribozyme variant]"
quantitativeresult = 0.872

[[record]]
sequencerecord = "AAGUCUGGUAAUAGUCGCAAG [Fam3.1 aminoacylation ribozyme variant]"
quantitativeresult = 0.868

[[record]]
sequencerecord = "CUACUUCACACAAUUGGUCUG [Fam1A.1 aminoacylation ribozyme variant]"
quantitativeresult = 0.828

[[record]]
sequencerecord = "CUACUUCAAACAAUCGCUCUA [Fam1A.1 aminoacylation ribozyme variant]"
quantitativeresult = 0.736

[[record]]
sequencerecord = "AUUACGCUGGUCAACGAGUGA [Fam2.1 aminoacylation ribozyme variant]"
quantitativeresult = 3.71

[[record]]
sequencerecord = "CCCCACUUCAAGCAAUCGGAC [Fam1B.1 aminoacylation ribozyme variant]"
quantitativeresult = 2.45

[[record]]
sequencerecord = "AAGUUUGCUUAUGGUCGCAAG [Fam3.1 aminoacylation ribozyme variant]"
quantitativeresult = 0.782

[[record]]
sequencerecord = "CGAUUUCAAACAAUCGGUCUG [Fam1A.1 aminoacylation ribozyme variant]"
quantitativeresult = 5.97

[[record]]
sequencerecord = "AUUCUCCUAGGUCAUCAGGUG [Fam2.2 aminoacylation ribozyme variant]"
quantitativeresult = 2.38

[[record]]
sequencerecord = "CCAGACUUCAAGCAAUCGGCC [Fam1B.1 aminoacylation ribozyme variant]"
quantitativeresult = 6.87

[[record]]
sequencerecord = "CCUCUCUUCAAGCAAUCGGUC [Fam1B.1 aminoacylation ribozyme variant]"
quantitativeresult = 20

[[record]]
sequencerecord = "ACUAACCUGGUCAUCGAGUGA [Fam2.1 aminoacylation ribozyme variant]"
quantitativeresult = 5.42

[[record]]
sequencerecord = "CUACUUCUAAUAAUCGGUCUG [Fam1A.1 aminoacylation ribozyme variant]"
quantitativeresult = 0.774

[[record]]
sequencerecord = "AUUCACAUAGGUCAUUGGGUG [Fam2.2 aminoacylation ribozyme variant]"
quantitativeresult = 4.51

[[record]]
sequencerecord = "AUUCACAUAGGUCAUCGGGCG [Fam2.2 aminoacylation ribozyme variant]"
quantitativeresult = 2.3

[[record]]
sequencerecord = "AUAACCCUGGUCACCGAGUGA [Fam2.1 aminoacylation ribozyme variant]"
quantitativeresult = 10.2

[[record]]
sequencerecord = "AUUCACCUAUGACAUCGGGUG [Fam2.2 aminoacylation ribozyme variant]"
quantitativeresult = 3.44

[[record]]
sequencerecord = "CGACUUCAAACAAUCGGUCUG [Fam1A.1 aminoacylation ribozyme variant]"
quantitativeresult = 44.4

[[record]]
sequencerecord = "AUUACCCUGGCCAUCUAGUGA [Fam2.1 aminoacylation ribozyme variant]"
quantitativeresult = 4.43

[[record]]
sequencerecord = "CGACACUUCAAGCAAUUGGUC [Fam1B.1 aminoacylation ribozyme variant]"
quantitativeresult = 0.777

[[record]]
sequencerecord = "CCACACCUCAAGCAAUCGCUC [Fam1B.1 aminoacylation ribozyme variant]"
quantitativeresult = 3.13

[[record]]
sequencerecord = "CCACACUUCAAGCUAUCGGUG [Fam1B.1 aminoacylation ribozyme variant]"
quantitativeresult = 5.5

[[record]]
sequencerecord = "CCACACUACAAGCAACCGGUC [Fam1B.1 aminoacylation ribozyme variant]"
quantitativeresult = 0.793

[[record]]
sequencerecord = "CAACGUCAAACAAUCGGUCUG [Fam1A.1 aminoacylation ribozyme variant]"
quantitativeresult = 2.6

[[record]]
sequencerecord = "CGACACUUCAAGUAAUCGGUC [Fam1B.1 aminoacylation ribozyme variant]"
quantitativeresult = 2.28

[[record]]
sequencerecord = "CCAGACUUCAAGCAAUCGGUA [Fam1B.1 aminoacylation ribozyme variant]"
quantitativeresult = 1.75

[[record]]
sequencerecord = "CUACUUCCAACAAUCGGUCUG [Fam1A.1 aminoacylation ribozyme variant]"
quantitativeresult = 0.831

[[record]]
sequencerecord = "AUUUACCUAGGUCACCGGGUG [Fam2.2 aminoacylation ribozyme variant]"
quantitativeresult = 3.83

[[record]]
sequencerecord = "AUUCACUUAGGUCAUUGGGUG [Fam2.2 aminoacylation ribozyme variant]"
quantitativeresult = 3.76

[[record]]
sequencerecord = "AUUGCUCUGGUCAUCGAGUGA [Fam2.1 aminoacylation ribozyme variant]"
quantitativeresult = 6.59

[[record]]
sequencerecord = "CCACAUUUCAAGCAAUCGGUG [Fam1B.1 aminoacylation ribozyme variant]"
quantitativeresult = 9.35

[[record]]
sequencerecord = "AUUCACCUAGUUCAUCGGGUG [Fam2.2 aminoacylation ribozyme variant]"
quantitativeresult = 2.49


----------
Each item that follows carries a reported self-aminoacylation.
Test system: biotinyl-Phe-oxazolone
assayExplanation: self-aminoacylation, catalytic enhancement (BFO) (fold over background); higher = more active; k-Seq, kA / k0A0; sequences stand for … in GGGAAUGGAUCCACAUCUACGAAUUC…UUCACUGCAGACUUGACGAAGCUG
Variants at the floor of the assay were thinned out.
assayReadout: self-aminoacylation

[[record]]
sequencerecord = "CCACACUUCAAACAAGCGGUC [Fam1B.1 aminoacylation ribozyme variant]"
result = 0.971

[[record]]
sequencerecord = "AAGUUUGCCAAUAGUCGCAAA [Fam3.1 aminoacylation ribozyme variant]"
result = 2.47

[[record]]
sequencerecord = "CUACUUCAAGCAAUCGCUCUG [Fam1A.1 aminoacylation ribozyme variant]"
result = 1.13

[[record]]
sequencerecord = "ACUACCCUGGUCAUGGAGUGA [Fam2.1 aminoacylation ribozyme variant]"
result = 11.6

[[record]]
sequencerecord = "CUACUUCAAACACUCUGUCUG [Fam1A.1 aminoacylation ribozyme variant]"
result = 0.709

[[record]]
sequencerecord = "AUUACCCUGGGCAUCGCGUGA [Fam2.1 aminoacylation ribozyme variant]"
result = 48.7

[[record]]
sequencerecord = "CUUCACCUAGGUCAACGGGUG [Fam2.2 aminoacylation ribozyme variant]"
result = 9.32

[[record]]
sequencerecord = "UCUCACUUCAAGCAAUCGGUC [Fam1B.1 aminoacylation ribozyme variant]"
result = 44.5


----------
Test system: biotinyl-Leu-oxazolone
assayExplanation: self-aminoacylation, catalytic enhancement (BLO) (fold over background); higher = more active; k-Seq, kA / k0A0; sequences stand for … in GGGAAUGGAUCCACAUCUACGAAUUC…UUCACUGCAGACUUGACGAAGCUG
Fewer inactive variants are shown than the library holds.
assayReadout: self-aminoacylation

[[record]]
sequencerecord = "CCACACUUCAACCAUUCGGUC [Fam1B.1 aminoacylation ribozyme variant]"
quantitativeresult = 1.25

[[record]]
sequencerecord = "AUUCACCUAGGUCAACUGGUG [Fam2.2 aminoacylation ribozyme variant]"
quantitativeresult = 3.35

[[record]]
sequencerecord = "AUUACCCUGAUCAUCCAGUGA [Fam2.1 aminoacylation ribozyme variant]"
quantitativeresult = 5.22

[[record]]
sequencerecord = "AUUACCCUGGUCAUCGCGUCA [Fam2.1 aminoacylation ribozyme variant]"
quantitativeresult = 2.14

[[record]]
sequencerecord = "CUACUUCAACCAUUCGGUCUG [Fam1A.1 aminoacylation ribozyme variant]"
quantitativeresult = 1.19

[[record]]
sequencerecord = "AAGUUUGCUAAGAGUCGGAAG [Fam3.1 aminoacylation ribozyme variant]"
quantitativeresult = 0.64

[[record]]
sequencerecord = "UCACGCUUCAAGCAAUCGGUC [Fam1B.1 aminoacylation ribozyme variant]"
quantitativeresult = 2.46

[[record]]
sequencerecord = "UCACACUUCAAGCAAUCGUUC [Fam1B.1 aminoacylation ribozyme variant]"
quantitativeresult = 0.611


----------
Each item that follows carries a reported self-aminoacylation.
Test system: biotinyl-Met-oxazolone
assayExplanation: self-aminoacylation, catalytic enhancement (BMO) (fold over background); higher = more active; k-Seq, kA / k0A0; sequences stand for … in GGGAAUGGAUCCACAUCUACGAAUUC…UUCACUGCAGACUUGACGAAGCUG
Variants at the floor of the assay were thinned out.
assayReadout: self-aminoacylation

[[record]]
sequencerecord = "CUAAUUCAAACAAUCAGUCUG [Fam1A.1 aminoacylation ribozyme variant]"
result = 0.702

[[record]]
sequencerecord = "AUUAACAUGGUCAUCGAGUGA [Fam2.1 aminoacylation ribozyme variant]"
result = 5.53

[[record]]
sequencerecord = "AUUUACCUAGGGCAUCGGGUG [Fam2.2 aminoacylation ribozyme variant]"
result = 3.65

[[record]]
sequencerecord = "CCACACUUCACGCAAUCGGUU [Fam1B.1 aminoacylation ribozyme variant]"
result = 2.01

[[record]]
sequencerecord = "CCACUUCAAACACUCGGUCUG [Fam1A.1 aminoacylation ribozyme variant]"
result = 1.75

[[record]]
sequencerecord = "AAGUAUGCUAAUAUUCGCAAG [Fam3.1 aminoacylation ribozyme variant]"
result = 1.76

[[record]]
sequencerecord = "AAGUUUGCUAAUAGUCGCCAG [Fam3.1 aminoacylation ribozyme variant]"
result = 1.03

[[record]]
sequencerecord = "AUGACCCUGGUGAUCGAGUGA [Fam2.1 aminoacylation ribozyme variant]"
result = 4.4

[[record]]
sequencerecord = "CUACUCCGAACAAUCGGUCUG [Fam1A.1 aminoacylation ribozyme variant]"
result = 0.668


Hey, just so you know, these numbers are from the supplement of paper PMC9233669.
